test system: MS2 coat protein; assay: apparent KD of MS2 coat protein; higher = weaker reporter binding; conditions: Eterna round: R107; input ligand: theophylline 2 mM
Tick MET if apparent KD of MS2 coat protein is 30 nM or greater. Tick NOT MET if apparent KD of MS2 coat protein is less than 30 nM.

biopolymerSequence | discreteLabel
ACAUGAGGAUCACCCAUGUAGCGUAGGGAAGGAGCGGAAUAGAGUCCAGGUAGGUCGCCCAUAUGAUGAUCUCACUUAUUAUCGA [#13 Same State - Arginine A] | MET
UGGGAAGGAGGAAGGAGCGCCAUAAGGGUGACAGUCUGGGUACAUGAGGAUCACCCAUGUAGGCAGGUAGGUCGCCUAGCUCUCA [XArg-B16] | NOT MET
GAUAUAUAACGAAGGAGCGGCCCUUGAUCCUCAUGAGACAUGAGGAUCACCCAUGUCUCGGGCCAGGUAGGUCGCGUUAUAUAUC [Astros-omei-mod] | NOT MET
UGACAUUGCUCAGAUACCAGACAUGAGCAUCAGCCAUGUGCCAACAAGUACAUAAUAAAUGUCCCUUGGCAGCUGAGCAAUGUCU [TheoBX 16 #MS2Left #Theo2 #AlternativeMS2] | MET
UGUAUGGACUGAAGGAGCGGGUUGAUAACCUGAGGAUCACCCAGGUAAAAGGCGAAAGCCACCCAGGUAGGUCGCAGUCCAUACU | NOT MET
UUAUGCAGGUCGGCCGCCACUACACACAUGAGGAUCACCCAUGUAGUUACUGGGUGAAGUGGCAGUAGGACCGGGACCCGCACAU [Brourdmod21] | MET
AAACAUGAGGAUCACCCAUGUAAAGUUGAAGGAGCGACCAGAGGGUCAGGUAGGUCGCAACACAUGAGGAUCACCCAUGUAUCGA [DOUBLE!!! :-D #5] | MET
UCUCAAGGCCGCUCGGUGCUCCCUGGUGAUACCAGCCAUAUAUCCGGCCCUUGGCAGCACAUGAGGAUCACCCAUGUAGCAGGCG [Sorimaat] | NOT MET

Qu. Threshold query (apparent KD of MS2 coat protein >= 30 nM) on AAAUAAAUACAUGAGGAUCACCCAUGUGAAGGAGCGCCCGUUAGGGCAGGUAGGUCGCACAUGAAAGGGAAGCGAAAGAAAUAAU [ArgEX 15 #OpenEnded]
Ans. NOT MET

Qu. Could you tell me if the measured apparent KD of MS2 coat protein of AGCCUCAUACAUGAGGAACACCCAUGUGAUACCAGUCAGGAAACUGACCCUUGGCAGCGCAUGAGGAUCACCCAUGCGCGAGGCA [Omei Theo A Exc A v3] reaches 30 nM or more?
Ans. MET

Qu. Evaluate GGGACAUGAGGAUCACCCAUGUACCGGUCCCGAGGACCGGUACGGCCGCCACUCGAUGACCUCAUAGUCUACUUGAGCAGUAGAC [Geeson] : apparent KD of MS2 coat protein at minimum 30 nM?
Ans. MET

Qu. Quick check, apparent KD of MS2 coat protein >= 30 nM? GAAUUUUAUUGAAGGAGCGUCGAAAAUGGGUAAACAUGAGGAUCACCCAUGUAAAGGGAACGACAGGUAGGUCGCAAUAGGAUUC [AstromonsSSArgB#28]
Ans. MET

Qu. For this sequence, is measured apparent KD of MS2 coat protein 30 nM or higher? UAACGGCACUGAAGGAGCGAGUUGACAAACAUGAGGAUCACCCAUGUUAUGGGUUGUUAAUCUCAGGUAGGUCGCAGUUGUCGUA [Same State Arginine B GF 20]
Ans. MET

Qu. For this sequence, is measured apparent KD of MS2 coat protein 30 nM or higher? GAUUAAACAUGAGGAUCACCCAUGUAUAUACGAGGACCGGUACGGCCGCCACUCGUAAACGAGUAUCCUCGAAUAAACAUGAUAA [AK 2.1 SS Trypt (A)]
Ans. MET

Qu. Does the sequence CUUGUGGUCGGAAGGAGCGCGAUUACAUAACAUGAGGAUCACCCAUGUAAGAAAUUAUUCAUGCAGGUAGGUCGCCGGUCGUGGG [Same State Arginine B GF10] have recorded apparent KD of MS2 coat protein that is 30 nM or more?
Ans. NOT MET

Qu. Decide: is the reported value of apparent KD of MS2 coat protein for UGUACCAUGUCGGCCGCCACUUGAAAUAAACAAGAGGAUCACCCUUGUGACGUCAAAGACGUCUCAAGGACCGGGACAUGGUACU [TryBS Zipper #StaticStem #Zipper] equal to or greater than 30 nM?
Ans. MET

###

system: K4 kissing-loop RNA reporter; test: apparent KD of K4 kissing-loop reporter; higher = weaker reporter binding; details: Eterna round: R107; input ligand: tryptophan 2.4 mM;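 further: bound reporter read as fluorescence of individual clusters on recovered sequencing chips by microscopy, with normalized cluster intensities fitted with a binding model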
Form field: apparent KD of K4 kissing-loop reporter (one value per entry).
All answers are understood in nM, so give the number only.

biopolymerSequence | readoutUnit | apparent KD of K4 kissing-loop reporter
GGAUAGGACAGAGGAUAUGGUAGUGAUGUUACCAAACUGGUUACUAAUGUCAGAAAACUGGCAAAUCCAGAAGGCUGUCCUAUCG [KL-XFMN-B13] | nM | 82.3
GGAUCCACCAGUGAUGUUGGAGAAAACUCAAAGGAUAUGACGAAAGUCAGAAGGUUGUAGACUGGACAAAGUCCGGUCGGAUCCA [FmnA 19 A30+U56] | nM | 475
UGCUUAAUGGAAGGAUAUUAGGGUUCGACCGCGUAUCAUUGUUAGUCUGGCCAGUGAUGUUGGCCUUAAGAAGGUCCGCUACGGU [theeternabot_exclusion_KL_FMN_B_27] | nM | 130
UACUAUAUUCUGUCGUUUUUAUUAGUUUGUCAGGAUAUCGUUUAUUCGAGAAGGGACACUGUCUAGUGAUGUUAGACAUUUCUUU [#04 K4 FMN A Exclusion] | nM | 75.5
GAGGCCAAACGGAGUGAUGUUUCGUAUGAUACCAGCAGCGAAAGCUGCCCUUGGCAGCAUGCCACGGCCUCGGCAGGAAACUGCC | nM | 339

Qu. Given the sequence UAGUCCUAGUGAUGGUUAUCACGUGGUGGGCGAGGACCGGUACGGCCGCCACUCGACUUUGCAGUGAUGUUGCAAACCGGACAAU [Exclusion - Tryptophan A (Freestyle 18)] , what is its reported apparent KD of K4 kissing-loop reporter?
Ans. 237

Qu. # lookup: apparent KD of K4 kissing-loop reporter of GUGCAGUGAUGUUGCACGAGGAAAGACGAUACCAGCCGUAAAUAAGGCCCUUGGCAGCGUAGGCUAGCAUAAGGUAUGCUAGUCC [Atesermace]
Ans. 100

Qu. Entry UGACUGGACUGAAGGAGCGAGGACGGUCAUAGACCGAAAUCAGUGAUGUUGAAAGAUAAACCUCAGGUAGGUCGCAGUCUAGUCU [ArgBS 1 #SwitchBubble #StaticStem] has what apparent KD of K4 kissing-loop reporter?
Ans. 1230

Qu. # get_value(readout='apparent KD of K4 kissing-loop reporter', item= UGUCGAGUGAUGUUCGAUUUGGUGCAUGCAGAGGAUAUAGGGUGGGCUAGAAGGCUGAAAAGUGCUUCGAGUGAUGUUCGAAGUU [Exclusion FMN A GF10] )
Ans. 97.3

Qu. Given the entry UGAUACCAGACUGAUACCAGCCAGUGAUGUUGGCUAAUCCGAGAAGGAGUCAAAGACUCCGGCCCUUGGCAGCAGUCUGGUAUCU [TheoBX 4 #SwitchBubble #StaticStem] , report its measured apparent KD of K4 kissing-loop reporter.
Ans. 121

Qu. Name the recorded apparent KD of K4 kissing-loop reporter for UCCAAUAUUUAUUGAUCCGCCUCGCAUCAACGAGGACCGGUACGGCCGCCACUCGUGCCUAGGUAGUGAUGUUACUUAGUUUACU [theeternabot_sameState_KL_Trp_A_32] .
Ans. 196

Qu. Would you mind telling me what apparent KD of K4 kissing-loop reporter value was observed for AGUGUUAGGUUAGAUACCAGCCGUCUGUGGAUAAUCCUCAGACCGCCAGUGAUGUUGGCAGGCCCUUGGCAGCUAACAGGACAGA [Mavebius] ?
Ans. 237

###

test system: MS2 coat protein; experiment: apparent KD of MS2 coat protein; designed switch direction (-1 OFF switch, 1 ON switch): -1; higher = weaker reporter binding; conditions: input ligand: none
Measured apparent KD of MS2 coat protein, listed per entry for reference.
// return numeric value only (unit: nM, not printed)

Please review the entries below; each comes with its answer.
biopolymerSequence | reportedResult
UAAUUGAUUAAUAGAUUAUACAUGAGGAUCACCCAUGUAGGUCCUACGUGCCAUUUAAGUAGCUCGUCUUAUUAUUA [Sensor-V1 #66] (Eterna round: R97, puzzle: Sensor, turn-off variant 1) | 46.5
AUUGUUUAUGUAGGAUAUGCCUGGCGUGCCUUUGCAGAAGGACAUGAGGAUCACCCAUGUAUUGCGGUCUGCGUUCAGAUCGCU [salish99_ExNG1_r4_033] (Eterna round: R96, puzzle: Exclusion NG 1) | 30.7

Moving on to another sequence below.
Qu. Suppose we examine the sequence GGACUAGGAGGAUAUACAUGAGGAUCACCCAUGUGUUGAUAAAGUCUACACAAUGUUAGUAGAAGGCUUAGACC [Eternabot (L2) Solution 18] (Eterna round: R97, puzzle: Exclusion 3) ; what apparent KD of MS2 coat protein value has been reported?
Ans. 17.5
